# Target Under Test: human GLP-1 R (Homo sapiens)
# Sequence (P43220 24-463): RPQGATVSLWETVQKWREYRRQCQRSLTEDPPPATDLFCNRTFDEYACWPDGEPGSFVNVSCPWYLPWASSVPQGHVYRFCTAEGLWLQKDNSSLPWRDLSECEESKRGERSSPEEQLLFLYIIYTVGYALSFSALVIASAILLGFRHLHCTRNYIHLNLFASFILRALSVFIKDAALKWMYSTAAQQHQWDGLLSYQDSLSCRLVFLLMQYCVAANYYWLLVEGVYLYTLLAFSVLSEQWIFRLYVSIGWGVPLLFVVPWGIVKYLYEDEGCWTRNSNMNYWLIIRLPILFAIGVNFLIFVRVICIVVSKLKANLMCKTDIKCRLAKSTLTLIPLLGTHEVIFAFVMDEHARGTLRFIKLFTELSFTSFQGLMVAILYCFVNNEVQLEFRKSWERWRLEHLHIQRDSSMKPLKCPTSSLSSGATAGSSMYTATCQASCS
# Experiment: cAMP signal activation in human GLP1R cells (hGLP1R-U2OS, HTRF)
Measured Attribute: EC50 (nM)

Completed entries (count: 4):
Compound | Unit Abbreviation | EC50
C[C@@H](c1nc2ccc(C(=O)O)cc2n1C[C@@H]1CCO1)N1CCC(c2cccc(OCc3ccc4cnn(CC(F)F)c4c3)n2)CC1 | nM | 10.3
C[C@@H](c1nc2ccc(C(=O)O)nc2n1C[C@@H]1CCO1)N1CCC(c2cccc(OCc3ccc4cnn(CC(F)(F)F)c4c3)n2)CC1 | nM | 2.92
C[C@@H](c1nc2ccc(C(=O)O)nc2n1C[C@@H]1CCO1)N1CCC(c2cccc(OCc3ccc(Cl)cc3F)n2)CC1 | nM | 3.89
C[C@@H](c1nc2ccc(C(=O)O)cc2n1C[C@@H]1CCO1)N1CCN(c2ncc(F)c(OCc3ccc(C#N)cc3F)n2)CC1 | nM | 12

1 = C[C@@H](c1nc2ccc(C(=O)O)cc2n1C[C@@H]1CCO1)N1CCC(c2cccc(OCc3ccc(Cl)cc3F)n2)C(O)C1 (stereo partly drawn)
2 = C[C@@H](c1nc2ccc(C(=O)O)cc2n1C[C@@H]1CCO1)N1CCC(c2cccc(OCc3cc(F)ccc3F)n2)CC1
Please indicate which has the smaller reported EC50: 1 , or 2 . // respond with label for picked entry 2

* * *

# Experiment: Pharmacokinetic study on rat
# Assay type: in vivo, SD rats
# Run Conditions: 5 mg/kg p.o vs 1 mg/kg i.v
Measured Attribute: F (%)

Molecule | Measured Attribute | Unit Abbreviation | Reported
C[C@@H](c1nc2ccc(C(=O)O)cc2n1C[C@@H]1CCO1)N1CCC(c2cccc(OCc3cc(F)ccc3F)n2)CC1 | F | % | 72.8

I = C[C@@H](c1nc2ccc(C(=O)O)cc2n1C[C@@H]1CCO1)N1CCN(c2cc(C(F)(F)F)cc(OCc3ccc(C#N)cc3F)n2)CC1
II = C[C@@H](c1nc2ccc(C(=O)O)nc2n1C[C@@H]1CCO1)N1CCC(c2cccc(OCc3ccc(Cl)cc3F)n2)CC1
Please indicate which has the smaller reported F: I , or II . Give the label under which the chosen entry appears. I

I = C[C@@H](c1nc2ccc(C(=O)O)cc2n1C[C@@H]1CCO1)N1CCC(c2cccc(OCc3ccc(Cl)cc3F)n2)CC1
II = C[C@@H](c1nc2ccc(C(=O)O)nc2n1C[C@@H]1CCO1)N1CCN(c2cccc(OCc3ccc(Cl)cc3F)n2)CC1 [Example 52A]
III = C[C@@H](c1nc2ccc(C(=O)O)nc2n1C[C@@H]1CCO1)N1CCN(c2cccc(OCc3ccc(C#N)cc3F)n2)CC1 [Example 51A]
Order the items by recorded F; the first position goes to the largest value. Reply with the labels, ordered as the question asks. II, I, III
(II: 76.6%, I: 49.0%, III: 34.3%)

* * *

# Experiment: Pharmacokinetic study on rat
# Format: in vivo, SD rats
# Run Conditions: male, Sprague-Dawley (SD), plasma, iv, 1 mg/kg, i.v
Measured Attribute: AUC(0-t) (ng·h/mL)

Compound | AUC(0-t), ng·h/mL
C[C@@H](c1nc2ccc(C(=O)O)nc2n1C[C@@H]1CCO1)N1CCC(c2cccc(OCc3ccc(Cl)cc3F)n2)CC1 | 1700
C[C@@H](c1nc2ccc(C(=O)O)cc2n1C[C@@H]1CCO1)N1CCC(c2cccc(OCc3cc(F)ccc3F)n2)CC1 | 5770
C[C@@H](c1nc2ccc(C(=O)O)cc2n1C[C@@H]1CCO1)N1CCN(c2cc(C(F)(F)F)cc(OCc3ccc(C#N)cc3F)n2)CC1 | 2260

P = C[C@@H](c1nc2ccc(C(=O)O)cc2n1C[C@@H]1CCO1)N1CCN(c2cccc(OCc3ccc(C#N)cc3F)n2)CC1 [Example 20A]
Q = C[C@@H](c1nc2ccc(C(=O)O)nc2n1C[C@@H]1CCO1)N1CCN(c2cccc(OCc3ccc(Cl)cc3F)n2)CC1 [Example 52A]
R = C[C@@H](c1nc2ccc(C(=O)O)cc2n1C[C@@H]1CCO1)N1CCC(c2cccc(OCc3ccc(Cl)cc3F)n2)CC1
List from greatest to least AUC(0-t). Rank them, then answer with their labels in that order. R, Q, P
(R: 2430 ng·h/mL, Q: 1130 ng·h/mL, P: 539 ng·h/mL)

1 = C[C@@H](c1nc2ccc(C(=O)O)cc2n1C[C@@H]1CCO1)N1CCC(c2cccc(OCc3ccc(C#N)cc3F)n2)CC1
2 = C[C@@H](c1nc2ccc(C(=O)O)nc2n1C[C@@H]1CCO1)N1CCN(c2cccc(OCc3ccc(C#N)cc3F)n2)CC1 [Example 51A]
Between the two listed entries 1 and 2 , which has its AUC(0-t) at the higher number? I would appreciate it if you answered with the label of your choice. 1
(1: 1250 ng·h/mL, 2: 613 ng·h/mL)
